All figures here come from PubChem BioAssay (NCI).

# Test system: SK-MEL-28 melanoma
# TEST NAME: NCI-60 one-dose screen, 48 h (100 = growth as untreated, 0 = no growth, -100 = all killed)
# ASSAY CONDITIONS: 10 µM unless noted
The panel holds about 83,000 compounds, 20% with a hit somewhere; the sample as a whole holds those more often. Activity calls are given as the source filed them. The calls were made as follows: active = growth percent below 10; inactive = the rest.
MEASURED METRIC: growth

Study these solved cases before continuing.
O=C(Nc1nc2ccc(F)cc2s1)c1cccnc1Nc1ccc(Cl)cc1
61.9% (inactive)
Nc1nc2c([nH]1)c1[nH]c3ccccc3c1c1[nH]c3ccccc3c21
-77.5% (active)

Dear colleague, could you please provide growth for the compounds listed below?
1. CCCCCCCCn1ccc2cc(NC(=O)CN3CCN(c4nc(C)cc(Cl)n4)CC3)ccc21
2. CCOC(=O)C(=Cc1cccc(Br)c1)C(=O)OCC
3. COc1cc(-n2cc(-c3cc(O)c(C/C=C(\C)CCC=C(C)C)c(O)c3)nn2)cc2c1O[C@]1(C)CC[C@@H](O)C(C)(C)[C@H]1C2

1. 98% (inactive)
2. 39.2% (inactive)
3. 35.7% (inactive)

Dear colleague, could you please provide growth for the compounds listed below?
1. CN(Cc1ccc(C(F)(F)F)cc1)CC(O)C(=O)Nc1ccc(Cl)cc1 (stereo unspecified)
2. CC(C)CCNC(=O)Cn1cccc(NC(=O)OCc2ccccc2)c1=O
3. COc1ccc2[nH]cc(-c3nc(-c4c[nH]c5ccncc45)cs3)c2c1
4. CC(C)CCC[C@@H](C)[C@H]1CC[C@H]2[C@@H]3CC=C4C[C@@H](C(C(=O)O)C(=O)O)CC[C@]4(C)[C@H]3CC[C@]12C

1. 85.8% (inactive)
2. 98.8% (inactive)
3. -88.5% (active)
4. -49.6% (active)

Dear colleague, could you please provide growth for the compounds listed below?
1. N=C(N)c1ccc(-c2ccc(-c3ccc(Cl)cc3)s2)nc1
2. O=C1N[C@@H]2NC(=[N+]3CCOCC3)N[C@@H]2N1
3. C[C@H](NC(=O)[C@@H](C)N)[C@H](Oc1ccc2c(cnn2-c2ccc(F)cc2)c1)c1ccc2c(c1)OCCO2

108% (inactive)
101% (inactive)
-66.7% (active)
